- target-entity: hα2A receptor (Homo sapiens)
- Construct: expressed in transfected cells; host or cells: CHO cells, stably transfected; membrane preparation
- Sequence (P08913 1-465): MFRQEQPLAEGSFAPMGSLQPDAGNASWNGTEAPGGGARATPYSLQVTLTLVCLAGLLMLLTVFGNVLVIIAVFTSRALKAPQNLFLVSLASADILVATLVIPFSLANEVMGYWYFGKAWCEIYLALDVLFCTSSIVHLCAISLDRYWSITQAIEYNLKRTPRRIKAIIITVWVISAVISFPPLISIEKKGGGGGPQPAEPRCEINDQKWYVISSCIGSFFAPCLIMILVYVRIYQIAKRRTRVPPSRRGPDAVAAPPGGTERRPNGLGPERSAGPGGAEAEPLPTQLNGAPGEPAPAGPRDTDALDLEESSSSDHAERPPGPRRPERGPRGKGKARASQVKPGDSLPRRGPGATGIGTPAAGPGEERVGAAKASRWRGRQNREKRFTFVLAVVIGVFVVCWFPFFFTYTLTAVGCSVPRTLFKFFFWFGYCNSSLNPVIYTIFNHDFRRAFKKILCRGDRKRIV
- protocol-text: Radioligand binding experiment for α2A-adrenoceptor ([3H]raulwolscine, CHO cell membranes)
- condition-notes: [3H]raulwolscine binding, read-out: h-α2A pIC50 (converted)
parameter-measured: log10(IC50) (log10 of the value in µM)
Lab note - IC50 converted to log10 from values in µM.

Consider the worked cases shown below.
q: Item C/C(=C\c1ccccc1)CN1CCC(Nc2nccn(Cc3ccccc3-c3ccccc3)c2=O)CC1 has what recorded log10(IC50)?
a: -1.00

q: Subsequent entry: C/C(=C\c1ccccc1)CN1CCC(Nc2nccn(-c3ccccn3)c2=O)CC1 [6-9]
a: -1.60

Below are 4 compounds. Give each one its log10(IC50).
1. C/C(=C\c1ccccc1)CN1CCC(Nc2nccn(-c3ccc(C(=O)N4CCOCC4)cc3)c2=O)CC1
2. C/C(=C\c1ccccc1)CN1CCC(Nc2nccn(-c3ccc(C(=O)N4CCN(Cc5ccccc5)CC4)cc3)c2=O)CC1
3. C/C(=C\c1ccccc1)CN1CCC(Nc2nccn(CC(=O)N(Cc3ccccc3)c3ccccc3)c2=O)CC1
4. C/C(=C\c1ccccc1)CN1CCC(Nc2nccn(CC(=O)N(CCCN3CCCC3)Cc3ccc(F)cc3)c2=O)CC1

a:
1. -1.50
2. -0.70
3. -0.80
4. -1.90

Below are 2 compounds. Give each one its log10(IC50).
1. C/C(=C\c1ccccc1)CN1CCC(Nc2nccn(Cc3ccc(CNS(=O)(=O)/C=C/c4ccccc4)cc3)c2=O)CC1
2. C/C(=C\c1ccccc1)CN1CCC(Nc2nccn(CCCN(C)C)c2=O)CC1 [1-15]

a:
-0.70
-1.30

* * *

- target-entity: 5HT-Transporter (Homo sapiens)
- Construct: Human platelet membranes (Oceanix Biosciences Corporation, Hanover, Md., USA) were thawed; tissue Oceanix Biosciences Corporation, Hanover, Md., USA; host or cells: human platelet membranes
- Sequence (P31645 whole entry): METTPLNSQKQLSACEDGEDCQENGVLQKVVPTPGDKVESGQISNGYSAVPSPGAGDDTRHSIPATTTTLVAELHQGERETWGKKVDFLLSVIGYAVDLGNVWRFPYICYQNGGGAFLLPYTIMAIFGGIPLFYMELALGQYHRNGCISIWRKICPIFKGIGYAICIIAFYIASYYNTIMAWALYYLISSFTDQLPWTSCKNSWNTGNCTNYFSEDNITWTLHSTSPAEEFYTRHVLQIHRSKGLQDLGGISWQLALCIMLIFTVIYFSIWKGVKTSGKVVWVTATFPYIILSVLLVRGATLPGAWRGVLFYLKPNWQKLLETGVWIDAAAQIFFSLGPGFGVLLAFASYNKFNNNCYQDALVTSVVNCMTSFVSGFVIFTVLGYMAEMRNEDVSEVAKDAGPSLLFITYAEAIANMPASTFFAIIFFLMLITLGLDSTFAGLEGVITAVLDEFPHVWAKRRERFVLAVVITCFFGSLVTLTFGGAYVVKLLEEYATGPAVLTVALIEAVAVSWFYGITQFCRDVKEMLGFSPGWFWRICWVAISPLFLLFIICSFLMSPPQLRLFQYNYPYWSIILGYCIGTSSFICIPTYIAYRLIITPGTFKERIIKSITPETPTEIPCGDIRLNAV
- protocol-text: Binding experiment for the 5HT-transporter ([3H]paroxetine, human platelet membranes)
- condition-notes: [3H]paroxetine 0.5 nM, read-out: h-5HTT pIC50 (converted)
Decision: IC50 beneath 2 µM gives rule met; IC50 meeting or exceeding 2 µM gives rule not met.

Take a look at these entries with their results.
q: Please let me know if C/C(=C\c1ccccc1)CN1CCC(Nc2nccn(-c3ccc(C(=O)NCc4ccc(F)cc4)cc3)c2=O)CC1 shows IC50 below 2 µM.
a: rule met

q: Subsequent entry: C/C(=C\c1ccccc1)CN1CCC(Nc2nccn(CC(=O)N3CCC(O)(c4ccccc4)CC3)c2=O)CC1
a: rule not met

q: Subsequent entry: COC(=O)CCNC(=O)Cn1ccnc(NC2CCN(C/C(C)=C/c3ccccc3)CC2)c1=O
a: rule not met

q: Subsequent entry: C/C(=C\c1ccccc1)CN1CCC(Nc2nccn(CCCN(C)C(=O)c3ccc(F)cc3)c2=O)CC1
a: rule not met

q: Subsequent entry: C/C(=C\c1ccccc1)CN1CCN(c2nccn(CC(=O)C(C)(C)C)c2=O)CC1
a: rule not met

---
q: Please let me know if C/C(=C\c1ccccc1)CN1CCC(Nc2nccn(Cc3ccc(CNC(=O)c4ccc(C#N)cc4)cc3)c2=O)CC1 shows IC50 below 2 µM.
a: rule met

q: Subsequent entry: CC(=O)c1ccc(S(=O)(=O)NCc2ccc(Cn3ccnc(NC4CCN(C/C(C)=C/c5ccccc5)CC4)c3=O)cc2)cc1
a: rule met

q: Subsequent entry: C/C(=C\c1ccccc1)CN1CCN(c2nccn(Cc3ccc(CNC(=O)OC(C)(C)C)cc3)c2=O)CC1
a: rule met

* * *

Give measured IC50 for each item. Keep answers brief.
- target-entity: hα2C receptor (Homo sapiens, UniProt P18825)
- Construct: expressed in transfected cells; host or cells: CHO cells, stably transfected; membrane preparation
- Sequence (P18825 whole entry): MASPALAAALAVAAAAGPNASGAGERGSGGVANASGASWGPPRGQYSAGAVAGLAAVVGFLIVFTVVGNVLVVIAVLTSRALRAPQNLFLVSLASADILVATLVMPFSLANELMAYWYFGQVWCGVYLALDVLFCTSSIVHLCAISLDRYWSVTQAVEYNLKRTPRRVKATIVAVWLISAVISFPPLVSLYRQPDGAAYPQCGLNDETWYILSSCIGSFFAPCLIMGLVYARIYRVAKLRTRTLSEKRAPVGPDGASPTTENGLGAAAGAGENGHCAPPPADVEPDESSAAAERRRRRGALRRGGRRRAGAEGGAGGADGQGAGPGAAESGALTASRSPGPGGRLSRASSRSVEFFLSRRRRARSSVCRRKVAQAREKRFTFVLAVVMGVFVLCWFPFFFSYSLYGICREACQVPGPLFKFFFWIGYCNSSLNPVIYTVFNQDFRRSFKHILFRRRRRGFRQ
- protocol-text: Radioligand binding experiment for α2C-adrenoceptor ([3H]raulwolscine, CHO cell membranes)
- condition-notes: [3H]raulwolscine binding, read-out: h-α2C pIC50 (converted)
Give bare numbers, in µM.

q: Item CCOC(=O)N1CCN(Cc2ccc(-n3ccnc(NC4CCN(C/C(C)=C/c5ccccc5)CC4)c3=O)cc2)CC1 [2-37] has what recorded IC50?
a: 0.0316

q: Subsequent entry: C/C(=C\c1ccccc1)CN1CCC(Nc2nccn(-c3nccs3)c2=O)CC1 [6-5]
a: 0.00794

q: Subsequent entry: C/C(=C\c1ccccc1)CN1CCC(Nc2nccn(-c3ccc(NC(=O)Nc4ccc(F)cc4)cc3)c2=O)CC1 [1-120]
a: 0.0251

q: Subsequent entry: C/C(=C\c1ccccc1)CN1CCC(Nc2nccn(CC(=O)N3CCN(c4ccccc4)CC3)c2=O)CC1 [2-26]
a: 0.00794

q: Subsequent entry: CNCCCn1ccnc(NC2CCN(C/C(C)=C/c3ccccc3)CC2)c1=O [1-8]
a: 0.00316

q: Subsequent entry: COC(=O)Cn1ccnc(NC2CCN(C/C=C/c3ccccc3)CC2)c1=O [16-10]
a: 0.2

q: Subsequent entry: C/C(=C\c1ccccc1)CN1CCC(Nc2nccn(Cc3csc(C)n3)c2=O)CC1 [6-6]
a: 0.02

Next up:
q: Item C/C(=C\c1ccccc1)CN1CCC(N(C)c2nccn(CCN3CCCCC3)c2=O)CC1 [15-3] has what recorded IC50?
a: 0.02

* * *

Give measured log10 of IC50 for each item. Keep answers brief.
- target-entity: hα2C receptor (Homo sapiens, UniProt P18825)
- Construct: expressed in transfected cells; host or cells: CHO cells, stably transfected; membrane preparation
- protocol-text: Radioligand binding experiment for α2C-adrenoceptor ([3H]raulwolscine, CHO cell membranes)
- condition-notes: [3H]raulwolscine binding, read-out: h-α2C pIC50 (converted)
Lab note - IC50 converted to log10 from values in nM.

Consider the worked cases shown below.
q: Item C/C(=C\c1ccccc1)CN1CCC(Nc2nccn(CC(=O)c3ccc(N4CCCC4)cc3)c2=O)CC1 has what recorded log10 of IC50?
a: 1.60

q: Subsequent entry: O=C1c2ccccc2C(=O)N1CCCn1ccnc(NC2CCN(C/C=C/c3ccccc3)CC2)c1=O
a: 1.10

q: Subsequent entry: C/C(=C\c1ccccc1)CN1CCC(Nc2nccn(Cc3ccccc3CS(=O)(=O)c3ccccc3)c2=O)CC1
a: 1.20

q: Subsequent entry: C/C(=C\c1ccccc1)CN1CCC(Nc2nccn(CC(=O)N(C)C)c2=O)CC1
a: 1.20

q: Subsequent entry: C/C(=C\c1ccccc1)CN1CCC(Nc2nccn(CCc3ccccc3)c2=O)CC1
a: 1.20

q: Subsequent entry: C/C(=C\c1ccccc1)CN1CCC(Nc2nccn(Cc3ccccc3Cl)c2=O)CC1
a: 1.30

Below are 2 compounds. Give each one its log10 of IC50.
1. C/C(=C\c1ccccc1)CN1CCC(Nc2nccn(Cc3ccc(-c4ccccc4)cc3)c2=O)CC1
2. C/C(=C\c1ccccc1)CN1CCC(N(C)c2nccn(Cc3ccc(CN)cc3)c2=O)CC1

a:
2.10
1.00

* * *

- target-entity: hα2A receptor (Homo sapiens, UniProt P08913)
- Construct: expressed in transfected cells; host or cells: CHO cells, stably transfected; membrane preparation
- Sequence (P08913 1-465): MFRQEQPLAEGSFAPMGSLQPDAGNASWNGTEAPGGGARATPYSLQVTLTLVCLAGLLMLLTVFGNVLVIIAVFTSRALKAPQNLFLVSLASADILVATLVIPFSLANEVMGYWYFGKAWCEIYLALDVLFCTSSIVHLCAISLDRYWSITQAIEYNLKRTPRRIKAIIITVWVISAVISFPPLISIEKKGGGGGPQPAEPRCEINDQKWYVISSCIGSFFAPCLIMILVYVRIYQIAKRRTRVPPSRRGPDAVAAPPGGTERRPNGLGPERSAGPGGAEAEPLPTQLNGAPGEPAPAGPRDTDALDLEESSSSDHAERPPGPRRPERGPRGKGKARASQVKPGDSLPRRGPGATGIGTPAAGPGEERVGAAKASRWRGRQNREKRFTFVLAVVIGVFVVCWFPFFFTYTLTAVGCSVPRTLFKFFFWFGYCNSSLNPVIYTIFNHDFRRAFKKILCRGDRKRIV
- protocol-text: Radioligand binding experiment for α2A-adrenoceptor ([3H]raulwolscine, CHO cell membranes)
- condition-notes: [3H]raulwolscine binding, read-out: h-α2A pIC50 (converted)
- Method: The interaction of a compound of Formula (I) with α2-adrenoceptor receptors was assessed in in vitro radioligand binding experiments. […] When equilibrium of binding is reached, the receptor bound radioactivity is separated from the non-bound radioactivity, and the receptor- or transporter-bound activity is counted. The interaction of the test compounds with the receptor is assessed in competition binding experiments. […]
parameter-measured: IC50 (nM)
Numbers only, in nM.

Consider the worked cases shown below.
q: Item C/C(=C\c1ccccc1)CN1CCC(Nc2nccn(Cc3cccc(F)c3)c2=O)CC1 [5-12] has what recorded IC50?
a: 100

q: Subsequent entry: C/C(=C\c1ccccc1)CN1CCN(c2nccn(Cc3ccc(CNC(=O)OC(C)(C)C)cc3)c2=O)CC1 [8-4]
a: 158

q: Subsequent entry: C/C(=C\c1ccccc1)CN1CCC(Nc2nccn(-c3nccs3)c2=O)CC1 [6-5]
a: 50.1

Next up:
q: Item CCCCN(Cc1ccccc1)C(=O)Cn1ccnc(NC2CCN(C/C(C)=C/c3ccccc3)CC2)c1=O [1-66] has what recorded IC50?
a: 79.4

The measured values listed here are drawn from patent US20090111801A1.
